The measurements presented in this section are drawn from PubChem BioAssay.

Could you please report measured red/green cell ratio (normalised) for the items listed next?
- ASSAY: differential killing of epithelial or mesenchymal cells, primary screen, imaging, PC-3E GFP, TEM4-18 mCherry, co-culture (AID 1345086);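 further: normalised mesenchymal count divided by normalised epithelial count so high means epithelial killing; cells exposed to compound for 72 h before imaging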
- CONDITION: imaging cell counts, at 1 µM, actives lie on both sides, counts scaled to control wells, 1 = unselective
Activity calls are given as the source filed them.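 How the source made its calls: active means compounds killing one labelled cell type while sparing the other, by normalised counts and ratio limits, not self-fluorescent; inactive means the rest.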

Recorded result, O=c1c(O)c(-c2ccccc2)oc2ccc3occc3c12 , red/green cell ratio (normalised): 0.81 (inactive)

Recorded result, Clc1ccc(CCC(Cn2ccnc2)Sc2c(Cl)cccc2Cl)cc1 (centres undefined) , red/green cell ratio (normalised): 0.84 (inactive)

Recorded result, NCC(O)c1ccc(O)c(O)c1 (centres undefined) , red/green cell ratio (normalised): 1.25 (inactive)

Recorded result, CC(C)[C@H](N)C(=O)OCC(CO)OCn1cnc2c(=O)[nH]c(N)nc21 (some centres undefined) , red/green cell ratio (normalised): 0.79 (inactive)

###

Could you please report measured inhibition for the items listed next?
- Tested on: Hepatitis C virus NS3 helicase
- ASSAY: HCV NS3 helicase inhibitors, primary screen, biochemical, fluorescence polarization, LOPAC1280 library (AID 687035)
- CONDITION: Purified HCV NS3 helicase, Cy5-dT15 ssDNA binding fluorescence polarization; stronger effect = higher value; concentration not given here
// note: answer is a bare numeric in %

Log: Hepatitis C virus NS3 helicase, compound CC(=O)O[C@H]1C(=O)[C@@]2(C)C([C@H](OC(=O)c3ccccc3)[C@]3(O)C[C@H](OC(=O)[C@H](O)[C@@H](NC(=O)c4ccccc4)c4ccccc4)C(C)=C1C3(C)C)[C@]1(OC(C)=O)CO[C@@H]1C[C@@H]2O (stereo partly specified) , inhibition = -1

Log: Hepatitis C virus NS3 helicase, compound CN1C2CCC1CC(OC(c1ccccc1)c1ccccc1)C2 (stereo unspecified) , inhibition = -5

Log: Hepatitis C virus NS3 helicase, compound COc1ccc(NC(=O)c2ccc(-c3ccc(-c4noc(C)n4)cc3C)cc2)cc1N1CCN(C)CC1 , inhibition = -3

Log: Hepatitis C virus NS3 helicase, compound CCc1ccc2c(-c3cccc(Cl)c3)nc(=O)n(CC)c2n1 , inhibition = -2

Log: Hepatitis C virus NS3 helicase, compound C/C(=C\c1ccc(C(=O)O)cc1)c1ccc2c(c1)C(C)(C)CCC2(C)C , inhibition = 0

Log: Hepatitis C virus NS3 helicase, compound COc1nc(C)nc(Cl)c1NC1=NCCN1 , inhibition = -4

Log: Hepatitis C virus NS3 helicase, compound CC(C)(C)c1ccc(S(=O)(=O)/C=C/C#N)cc1 , inhibition = -4

Log: Hepatitis C virus NS3 helicase, compound CN1[C@@H](CC(=O)c2ccccc2)CCC[C@H]1C[C@H](O)c1ccccc1 , inhibition = 0

Log: Hepatitis C virus NS3 helicase, compound COc1cccc(-c2cc(=O)c3ccccc3o2)c1N , inhibition = -1

Log: Hepatitis C virus NS3 helicase, compound Brc1c(Br)c(Br)c2n[nH]nc2c1Br , inhibition = -6

Log: Hepatitis C virus NS3 helicase, compound CC(=O)N1CCN(c2ccc(OC[C@H]3CO[C@](Cn4ccnc4)(c4ccc(Cl)cc4Cl)O3)cc2)CC1 , inhibition = -5

###

Could you please report measured glutamate uptake change for the items listed next?
- ASSAY: enhancers of glutamate uptake in motor neurons, MN-1 cell line (AID 1612);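 further: 0% = mean of DMSO vehicle wells on each plate; positive means more glutamate uptake than control and negative means less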
- CONDITION: MN-1 motor neuron cells, stronger effect = higher value
Number plus unit, in that order.

Recorded result, CC(=O)[C@H]1CCC2C3CCC4=CC(=O)CC[C@]4(C)C3CC[C@@]21C (stereo partly drawn) , glutamate uptake change: -1.48%

Recorded result, NCCCCNCCCN , glutamate uptake change: -3.1%

Recorded result, CCC(=O)O[C@]1(C(=O)CCl)[C@@H](C)CC2C3CCC4=CC(=O)C=C[C@]4(C)[C@@]3(F)[C@@H](O)C[C@@]21C (stereo partly drawn) , glutamate uptake change: 19.7%

###

Could you please report measured log fold change Tl+ flux for the items listed next?
- System: F380Y/beta4
- ASSAY: modulators of BK channel variants, profiling panel, selectivity assay, cell-based, U2OS BacMam, thallium flux, beta subunits (AID 1259406);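 further: initial slope of Thallos dye fluorescence rise after thallium is added; log ratio against the mean of 0.3% DMSO vehicle wells on the same plate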
- CONDITION: at 30 µM
Active and inactive are the calls of the source.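 How the source made its calls: active means thallium flux through the channel raised or lowered by more than 3 SD from vehicle-only wells, actives on both sides; inactive means the rest.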 Non-standard residues stand in square brackets, D forms with d. Residues, ends and D or L forms follow the SMILES beside them. pGlu = O=C1CC[C@@H](C(=O)O)N1; Thz = O=C(O)[C@@H]1CSCN1

Recorded result, C=CC[C@@H]1C=C(C)C[C@H](C)C[C@H](OC)[C@H]2O[C@@](O)(C(=O)C(=O)N3CCCC[C@H]3C(=O)O[C@H](/C(C)=C/[C@@H]3CC[C@@H](O)[C@H](OC)C3)[C@H](C)[C@@H](O)CC1=O)[C@H](C)C[C@@H]2OC , log fold change Tl+ flux: 0.109 (active)

Recorded result, O=C(ON(C(=O)c1ccc(F)cc1)C1C2CC3CC(C2)CC1C3)c1ccc(F)cc1 (stereo not drawn) , log fold change Tl+ flux: 0.0374 (inactive)

Recorded result, Cc1nc(-c2ccc(S(=O)(=O)N3CCCN(c4ccc(C(F)(F)F)cn4)CC3)s2)cs1 , log fold change Tl+ flux: -0.105 (active)

Recorded result, CCC1=C[C@H]2CN(C1)Cc1c([nH]c3ccccc13)[C@@](C(=O)OC)(c1cc3c(cc1OC)N(C)[C@H]1[C@@](O)(C(=O)OC)[C@H](OC(C)=O)[C@]4(CC)C=CCN5CC[C@]31[C@@H]54)C2 , log fold change Tl+ flux: 0.0427 (inactive)

Recorded result, CO[C@H]1C=CO[C@@]2(C)Oc3c(C)c(O)c4c(O)c(c5c(c4c3C2=O)NC2(CCN(CC(C)C)CC2)N=5)=NC(=O)C(C)=CC=C[C@H](C)[C@H](O)[C@@H](C)[C@@H](O)[C@@H](C)[C@H](OC(C)=O)[C@@H]1C , log fold change Tl+ flux: -0.0911 (inactive)

Recorded result, COc1cccc(N2CC(=O)N(NC(=O)NC3CCCCC3)CC2=O)c1 , log fold change Tl+ flux: -0.0285 (inactive)

Recorded result, O=C1CSC(=S)N1N=Cc1cccnc1 , log fold change Tl+ flux: 0.0146 (inactive)

Recorded result, O=C(Nc1c(S(=O)(=O)c2ccccc2)csc1Br)c1ccccc1Cl , log fold change Tl+ flux: 0.0338 (inactive)

Recorded result, O=C(NCC1CC1)c1ccccc1NS(=O)(=O)c1cccc2nonc12 , log fold change Tl+ flux: 0.0071 (inactive)

Recorded result, O=C1c2cccc3c(Sc4ccccc4)ccc(c23)C(=O)N1CCc1ccccn1 , log fold change Tl+ flux: 0.0446 (inactive)

Recorded result, Oc1c(Cl)cc(Cl)cc1C=Nc1nccs1 , log fold change Tl+ flux: 0.105 (active)

Recorded result, O=C1C(c2c(O)[nH]c3ccccc23)=Nc2ccccc21 , log fold change Tl+ flux: 0.0357 (inactive)

Recorded result, Nc1ncnc2c1ncn2[C@@H]1O[C@H](CO)C[C@@H]1O , log fold change Tl+ flux: 0.0334 (inactive)

Recorded result, O=c1c(Cl)c(N2CCOCC2)cnn1-c1cnc2ccccc2n1 , log fold change Tl+ flux: 0.0417 (inactive)

Recorded result, O=C(NCc1ccc2c(c1)OCO2)C1CCN(C(=O)OCc2ccccc2)CC1 , log fold change Tl+ flux: -0.064 (inactive)

Recorded result, Cc1onc(-c2c(Cl)cccc2Cl)c1C(=O)NOC(=O)c1cccs1 , log fold change Tl+ flux: 0.0829 (inactive)

Recorded result, CS(=O)(=NS(=O)(=O)c1ccc(OC(F)(F)F)cc1)c1ccccc1 (stereo not drawn) , log fold change Tl+ flux: -0.00984 (inactive)

Recorded result, COc1ccc2[nH]c(S(=O)Cc3ncc(C)c(OC)c3C)nc2c1 (stereo not drawn) , log fold change Tl+ flux: 0.0255 (inactive)

Recorded result, CC(=O)CSc1nc(SCC(C)=O)c2cnc(N3CCCC3)nc2n1 , log fold change Tl+ flux: -0.00484 (inactive)

Recorded result, Cc1cc(Nc2ccc(F)cc2F)nc(SCc2c(Cl)cccc2Cl)n1 , log fold change Tl+ flux: -0.123 (active)

Recorded result, CC12CCC(=O)C=C1CCC1C2CCC2(C)C1CCC2(O)C(=O)CO (stereo not drawn) , log fold change Tl+ flux: 0.00388 (inactive)

Recorded result, Nc1ccc2cn[nH]c2c1 , log fold change Tl+ flux: -0.00919 (inactive)

Recorded result, COCc1cc(=O)[nH]c(SCC(=O)c2ccc(-c3ccccc3)cc2)n1 , log fold change Tl+ flux: -0.000638 (inactive)

Recorded result, Cc1nn(C)c2ncc(C(N)=O)c(Oc3ccc(Cl)cc3)c12 , log fold change Tl+ flux: 0.049 (inactive)

Recorded result, Cc1nn(-c2ccccc2)nc1C(=O)NNC(=O)CSCc1cccc2ccccc12 , log fold change Tl+ flux: -0.00465 (inactive)

Recorded result, O=C(NC(=O)c1ccccc1Oc1ccc(Cl)cc1Cl)Nc1cc(Cl)cc(Cl)c1 , log fold change Tl+ flux: -0.00832 (inactive)

Recorded result, CCCCCCCCCCCCSC(=S)Nc1ccc(Br)c(C)c1 , log fold change Tl+ flux: -0.000986 (inactive)

Recorded result, O=C1CC[C@@H](C(=O)N2CSC[C@H]2C(=O)O)N1 ([pGlu]-[Thz]-OH) , log fold change Tl+ flux: 0.0189 (inactive)

Recorded result, CON=C(C(=O)N[C@@H]1C(=O)N2C(C(=O)O)=C(COC(N)=O)CS[C@H]12)c1ccco1 , log fold change Tl+ flux: -0.0173 (inactive)

Recorded result, COC(=O)c1sccc1NN=C(C)c1ccc(NC(=O)C(Cl)Cl)cc1 , log fold change Tl+ flux: -0.0317 (inactive)

Recorded result, CCN(CC)C(=O)[C@]1(c2ccccc2)C[C@@H]1CN , log fold change Tl+ flux: 0.00308 (inactive)

Recorded result, CC(N)(Cc1ccc(O)c(O)c1)C(=O)O (stereo not drawn) , log fold change Tl+ flux: -0.00847 (inactive)

Recorded result, O=C1CSCC(=O)N1c1csc(C(F)(F)F)c1-c1ccccc1 , log fold change Tl+ flux: 0.0035 (inactive)
